src = ChEMBL document CHEMBL3217518

Entries annotated with measured pIC50
Biological target: Human immunodeficiency virus type 1 integrase (Human immunodeficiency virus 1, UniProt Q7ZJM1)
Sequence (Q7ZJM1 whole entry): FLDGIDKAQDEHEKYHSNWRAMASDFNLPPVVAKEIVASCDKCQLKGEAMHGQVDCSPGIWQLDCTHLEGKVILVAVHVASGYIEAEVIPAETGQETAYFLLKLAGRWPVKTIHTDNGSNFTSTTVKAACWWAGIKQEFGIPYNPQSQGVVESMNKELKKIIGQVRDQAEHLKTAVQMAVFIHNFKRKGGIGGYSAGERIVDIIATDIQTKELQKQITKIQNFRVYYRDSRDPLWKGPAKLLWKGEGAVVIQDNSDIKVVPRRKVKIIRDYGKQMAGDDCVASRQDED
Test: Inhibition of HIV1 recombinant integrase strand transfer activity using precleaved LTR DNA as substrate after 1 hr by densitometric analysis
pIC50: −log10 of the molar value.
parameter_measured: pIC50

[[record]]
chemical_smiles = "CCCCCCCCCCCCCCCCCC[n+]1ccn(C)c1.O=S(=O)([N-]S(=O)(=O)C(F)(F)F)C(F)(F)F"
data_value = 5.40

[[record]]
chemical_smiles = "CCCCCCCCCCCCCCCCCC[n+]1ccn(C)c1"
data_value = 5.46

[[record]]
chemical_smiles = "CCCCCCCCCCCCCCCCn1cc[n+](C)c1"
data_value = 5.25


----------
Entries annotated with measured pIC50
Biological target: UniProt Q7ZJM1
Assay: Inhibition of HIV1 recombinant integrase strand transfer activity using [32P]-radiolabeled full-length DNA as substrate after 1 hr by densitometric analysis
pIC50: −log10 of the molar value.
parameter_measured: pIC50

[[record]]
compound = "CCCCCCCCN(CCCCCCCC)CCCCCCCC"
data_value = "< 3.48"

[[record]]
compound = "CCCCCCCCCCCCCCCCCCPCCCCCCCCCCCCCC.O=S(=O)(NS(=O)(=O)C(F)(F)F)C(F)(F)F (configuration not stated)"
data_value = "< 4.00"

[[record]]
compound = "CCCCCCCC[N+](C)(CCCCCCCC)CCCCCCCC"
data_value = 5.21

[[record]]
compound = "CCCCCCCCCCCCCCCCCCn1ccnc1"
data_value = "< 3.48"

[[record]]
compound = "CCCCCCCCCCn1ccnc1"
data_value = "< 3.48"

[[record]]
compound = "CCCCCCCC[N+]1(C)CCCC1"
data_value = "< 4.00"

[[record]]
compound = "CCCCCCCC[n+]1ccn(C)c1"
data_value = "< 4.00"


----------
Entries annotated with measured IC50
Target: Human immunodeficiency virus type 1 integrase (Human immunodeficiency virus 1, UniProt Q7ZJM1)
Test: Inhibition of HIV1 recombinant integrase 3' processing activity using [32P]-radiolabeled full-length DNA as substrate after 1 hr by densitometric analysis
parameter_measured: IC50 (µM)

[[record]]
chemical_smiles = "CCCCCCCCCCn1ccnc1"
parameter_measured = "IC50"
qual = ">"
data_value = 333

[[record]]
chemical_smiles = "CCCCCCCCCCCCCCn1cc[n+](C)c1"
parameter_measured = "IC50"
qual = "="
data_value = 55.2

[[record]]
chemical_smiles = "CCCCCCCC[N+](C)(CCCCCCCC)CCCCCCCC"
parameter_measured = "IC50"
qual = "="
data_value = 9

[[record]]
chemical_smiles = "CCCCCCCCN(C)CCCCCCCC"
parameter_measured = "IC50"
qual = ">"
data_value = 333

[[record]]
chemical_smiles = "CCCCCCCC[N+](C)(CCCCCCCC)CCCCCCCC.O=S(=O)([N-]S(=O)(=O)C(F)(F)F)C(F)(F)F"
parameter_measured = "IC50"
qual = ">"
data_value = 100

[[record]]
chemical_smiles = "C[N+](C)(C)C.FC(F)(F)C(F)(F)[P-](F)(F)(F)(C(F)(F)C(F)(F)F)C(F)(F)C(F)(F)F"
parameter_measured = "IC50"
qual = "="
data_value = 138


----------
Entries annotated with measured IC50
Target: Human immunodeficiency virus type 1 integrase (Human immunodeficiency virus 1, UniProt Q7ZJM1)
Assay: Inhibition of HIV1 recombinant integrase 3' processing activity using [32P]-radiolabeled full-length DNA as substrate after 1 hr by densitometric analysis
parameter_measured: IC50

[[record]]
molecule = "CCCCCCCCCCCCCCCCCCn1ccnc1"
parameter_measured = "IC50"
data_value = "> 333 µM"

[[record]]
molecule = "CCCCCCCCCCn1cc[n+](C)c1"
parameter_measured = "IC50"
data_value = "> 333 µM"

[[record]]
molecule = "CCCCCCCCCCCCCCCCCC[n+]1ccn(C)c1.O=S(=O)([N-]S(=O)(=O)C(F)(F)F)C(F)(F)F"
parameter_measured = "IC50"
data_value = "1.6 µM"

[[record]]
molecule = "CCCCCCCCCCCCCCCCCCPCCCCCCCCCCCCCC.O=S(=O)(NS(=O)(=O)C(F)(F)F)C(F)(F)F (centres undefined)"
parameter_measured = "IC50"
data_value = "> 100 µM"

[[record]]
molecule = "CCCCCCCCCCCCn1cc[n+](C)c1"
parameter_measured = "IC50"
data_value = "72 µM"

[[record]]
molecule = "CCCCCCCC[n+]1ccn(C)c1"
parameter_measured = "IC50"
data_value = "> 100 µM"

[[record]]
molecule = "CN(C)C(N(C)C)N(C)C"
parameter_measured = "IC50"
data_value = "> 100 µM"

[[record]]
molecule = "CCCCCCCC[n+]1ccccc1"
parameter_measured = "IC50"
data_value = "> 100 µM"

[[record]]
molecule = "CCCCCCCCCCCCCCCCn1cc[n+](C)c1"
parameter_measured = "IC50"
data_value = "2.5 µM"

[[record]]
molecule = "CCCCCCCCCCCCCCCCCC[n+]1ccn(C)c1"
parameter_measured = "IC50"
data_value = "1.7 µM"

[[record]]
molecule = "C[N+](C)(C)C.O=C1O[B-]2(OC1=O)OC(=O)C(=O)O2"
parameter_measured = "IC50"
data_value = "> 333 µM"

[[record]]
molecule = "CCCCCCCC[N+](C)(CCCCCCCC)CCCCCCCC"
parameter_measured = "IC50"
data_value = "6.8 µM"

[[record]]
molecule = "CCCCCCCCN(CCCCCCCC)CCCCCCCC"
parameter_measured = "IC50"
data_value = "> 333 µM"

[[record]]
molecule = "CCCCCCCC[N+]1(C)CCCC1"
parameter_measured = "IC50"
data_value = "> 100 µM"


----------
Entries annotated with measured IC50
Target: UniProt Q7ZJM1
Assay: Inhibition of HIV1 recombinant integrase strand transfer activity using [32P]-radiolabeled full-length DNA as substrate after 1 hr by densitometric analysis
parameter_measured: IC50 (µM)

[[record]]
chemical_smiles = "CCCCCCCCCCCCCCCCn1cc[n+](C)c1"
parameter_measured = "IC50"
qual = "="
data_value = 1.3

[[record]]
chemical_smiles = "CCCCCCCCN(C)CCCCCCCC"
parameter_measured = "IC50"
qual = ">"
data_value = 333

[[record]]
chemical_smiles = "CCCCCCCC[n+]1ccccc1"
parameter_measured = "IC50"
qual = ">"
data_value = 100

[[record]]
chemical_smiles = "CCCCCCCC[N+](C)(CCCCCCCC)CCCCCCCC"
parameter_measured = "IC50"
qual = "="
data_value = 2.8

[[record]]
chemical_smiles = "C[N+](C)(C)C.FC(F)(F)C(F)(F)[P-](F)(F)(F)(C(F)(F)C(F)(F)F)C(F)(F)C(F)(F)F"
parameter_measured = "IC50"
qual = "="
data_value = 38.5

[[record]]
chemical_smiles = "CCCCCCCCCCCCn1cc[n+](C)c1"
parameter_measured = "IC50"
qual = "="
data_value = 36.6

[[record]]
chemical_smiles = "CCCCCCCCCCCCCCn1cc[n+](C)c1"
parameter_measured = "IC50"
qual = "="
data_value = 20.2

[[record]]
chemical_smiles = "C[N+](C)(C)C.O=C1O[B-]2(OC1=O)OC(=O)C(=O)O2"
parameter_measured = "IC50"
qual = "="
data_value = 310

[[record]]
chemical_smiles = "CCCCCCCC[N+](C)(CCCCCCCC)CCCCCCCC.O=S(=O)([N-]S(=O)(=O)C(F)(F)F)C(F)(F)F"
parameter_measured = "IC50"
qual = "="
data_value = 6.6

[[record]]
chemical_smiles = "CCCCCCCCCCn1cc[n+](C)c1"
parameter_measured = "IC50"
qual = ">"
data_value = 333

[[record]]
chemical_smiles = "CN(C)C(N(C)C)N(C)C"
parameter_measured = "IC50"
qual = ">"
data_value = 100

[[record]]
chemical_smiles = "CCCCCCCCCCCCCCCCCC[n+]1ccn(C)c1.O=S(=O)([N-]S(=O)(=O)C(F)(F)F)C(F)(F)F"
parameter_measured = "IC50"
qual = "="
data_value = 1.53

